Attribution: paper PMC8745332

- methodNotes: in vitro
- runParameters: human, HEK293 cells
valueType: viability at 48 h, 50 µM (%)

>>> measurement("Nc1cc(F)ccc1NC(=O)c1cnc(N2CCNCC2)cn1 [23a]")
67
>>> measurement("Nc1ccccc1NC(=O)c1cnc(N2CCN(Cc3c[nH]c4ccccc34)CC2)cn1 [19f]")
76.1
>>> measurement("Nc1ccc(-c2cccs2)cc1NC(=O)c1cnc(N2CCNCC2)cn1 [29b]")
2.4
>>> measurement("Cn1cc(CN2CCN(c3cnc(C(=O)Nc4cc(F)ccc4N)cn3)CC2)c2ccccc21 [23b]")
58.7
>>> measurement("Cn1cc(CCN2CCN(c3cnc(C(=O)Nc4cc(-c5cccs5)ccc4N)cn3)CC2)c2ccccc21 [21a]")
94.4
>>> measurement("Nc1ccc(-c2ccccc2F)cc1NC(=O)c1cnc(N2CCN(CCc3c[nH]c4ccccc34)CC2)cn1 [21c]")
72.3

----------
Catalogue of compounds with associated IC50
- testedSystem: human HDAC3/NCOR1 (Homo sapiens, UniProt O15379)
- Construct: purchased ENZO Life Sciences AG (Lausen, CH)
- Sequence (O15379 whole entry): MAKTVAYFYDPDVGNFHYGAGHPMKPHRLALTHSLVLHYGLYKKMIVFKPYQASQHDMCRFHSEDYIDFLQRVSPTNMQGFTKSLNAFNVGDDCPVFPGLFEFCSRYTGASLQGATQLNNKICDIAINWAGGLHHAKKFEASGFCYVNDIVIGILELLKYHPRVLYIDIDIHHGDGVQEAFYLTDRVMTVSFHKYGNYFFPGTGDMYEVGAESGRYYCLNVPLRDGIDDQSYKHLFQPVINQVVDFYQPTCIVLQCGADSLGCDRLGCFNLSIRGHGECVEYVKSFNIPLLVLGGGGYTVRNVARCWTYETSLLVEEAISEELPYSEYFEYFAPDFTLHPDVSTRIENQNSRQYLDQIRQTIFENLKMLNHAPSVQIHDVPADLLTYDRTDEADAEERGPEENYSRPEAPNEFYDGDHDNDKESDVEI
- Sequence (O75376 395-489 partner limits assumed): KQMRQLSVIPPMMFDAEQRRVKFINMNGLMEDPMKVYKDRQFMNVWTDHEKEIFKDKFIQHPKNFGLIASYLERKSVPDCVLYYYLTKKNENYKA
- methodNotes: In vitro HDAC3 inhibition assay, fluorogenic p53 peptide Ac-RHKK(Acetyl)-AMC
- Type: biochemical
- runParameters: 3 nM HDAC3, 20 µM substrate, 30 min, 37 °C
valueType: IC50 (µM)

>>> measurement("Nc1ccc(-c2ccc(F)cc2)cc1NC(=O)c1cnc(N2CCNCC2)cn1 [29c]")
6.7
>>> measurement("Nc1cc(F)c(F)cc1NC(=O)c1cnc(N2CCNCC2)cn1 [25b]")
1.6
>>> measurement("CN1CCN(c2cnc(C(=O)Nc3cc(-c4ccsc4)ccc3N)cn2)CC1 [29a]")
4.4
>>> measurement("Nc1cc(Cl)ccc1NC(=O)c1cnc(N2CCNCC2)cn1 [25a]")
8.7
>>> measurement("Cn1cc(CN2CCN(c3cnc(C(=O)Nc4cc(F)ccc4N)cn3)CC2)c2ccccc21 [23b]")
0.5
>>> measurement("Cn1cc(CCN2CCN(c3cnc(C(=O)Nc4cc(F)ccc4N)cn3)CC2)c2ccccc21 [23c]")
0.59
>>> measurement("CN1CCN(c2cnc(C(=O)Nc3cc(-c4ccccc4F)ccc3N)cn2)CC1 [29d]")
12
